From: patent US9586961B2

Recorded EC50 by entry
target_desc: JAK1 (Homo sapiens, UniProt P23458)
Construct: JAK1 (aa 850-1154) and TYK2 (aa 871-1187) are expressed with an N-terminally fused GST-tag; GST (N)
Sequence (P23458 850-1154): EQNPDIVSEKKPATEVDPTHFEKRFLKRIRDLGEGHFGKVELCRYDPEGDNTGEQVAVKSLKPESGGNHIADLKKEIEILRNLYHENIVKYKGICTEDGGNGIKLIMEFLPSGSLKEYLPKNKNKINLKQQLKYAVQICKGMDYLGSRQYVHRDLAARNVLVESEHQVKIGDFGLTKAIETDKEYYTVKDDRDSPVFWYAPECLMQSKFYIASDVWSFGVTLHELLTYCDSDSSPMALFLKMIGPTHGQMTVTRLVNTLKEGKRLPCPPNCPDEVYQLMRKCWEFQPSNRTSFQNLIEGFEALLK
method_summary: JAK1 kinase assay (HTRF, inhibition of phosphorylation of a synthetic peptide)
condition_notes: catalytic domain aa 850-1154, GST-tag; 7 μM ATP (Km); read-out: JAK1 kinase inhibitory activity (EC50)

1) O=C(Cc1ccc(OC(F)(F)F)cc1)N1CCN(c2ncnc3[nH]ccc23)CC2(CC2)C1: < 100 nM
2) Cc1cc(C(=O)N2CCCN(c3ncnc4[nH]ccc34)CC23CC3)n[nH]1: 100 to 1000 nM
3) O=C(c1cnon1)N1CCCN(c2ncnc3[nH]ccc23)CC12CC2: 100 to 1000 nM
4) O=C(C1CCCCC1)N1CCCN(c2ncnc3[nH]ccc23)CC12CC2: < 100 nM
5) Cn1cc(S(N)(=O)=O)cc1C(=O)N1CCN(c2ncnc3[nH]ccc23)CC2(CC2)C1: 100 to 1000 nM
6) CCN(CC)S(=O)(=O)N1CCN(c2ncnc3[nH]ccc23)CC2(CC2)C1: > 1000 nM
7) O=C(Cc1ccc(C(F)(F)F)cc1)N1CCN(c2ncnc3[nH]ccc23)CC2(CC2)C1: < 100 nM

Exercise: Give measured EC50 for NS(=O)(=O)c1ccc2[nH]c(C(=O)N3CCN(c4ncnc5[nH]ccc45)CC4(CC4)C3)cc2c1 (JAK1 (Homo sapiens, UniProt P23458)).
Key: < 100 nM

====

target_desc: JAK1 (Homo sapiens)
Construct: JAK1 (aa 850-1154) and TYK2 (aa 871-1187) are expressed with an N-terminally fused GST-tag; GST (N)
method_summary: JAK1 kinase assay (HTRF, inhibition of phosphorylation of a synthetic peptide)
condition_notes: catalytic domain aa 850-1154, GST-tag; 7 μM ATP (Km); read-out: JAK1 kinase inhibitory activity (EC50)
pEC50: −log10 of the molar value.
endpoint_name: pEC50

1. Cc1cnccc1C(=O)N1CCN(c2ncnc3[nH]ccc23)CC2(CC2)C1: < 6.00

Exercise: Write down pEC50 measured for item Cc1nc(C)c(CC(=O)N2CCCN(c3ncnc4[nH]ccc34)CC23CC3)s1
Key: < 6.00

Exercise: Write down pEC50 measured for item O=C(c1n[nH]c(Cl)n1)N1CCN(c2ncnc3[nH]ccc23)CC2(CC2)C1
Key: 6.00 to 7.00

Exercise: Write down pEC50 measured for item O=C(c1ccccn1)N1CCCN(c2ncnc3[nH]ccc23)CC12CC2
Key: 6.00 to 7.00

Exercise: Write down pEC50 measured for item Cc1oncc1C(=O)N1CCCN(c2ncnc3[nH]ccc23)CC12CC2
Key: 6.00 to 7.00

Exercise: Write down pEC50 measured for item Cc1cc(C(=O)N2CCCN(c3ncnc4[nH]ccc34)CC23CC3)no1
Key: > 7.00

Exercise: Write down pEC50 measured for item O=C(c1cnsn1)N1CCCN(c2ncnc3[nH]ccc23)CC12CC2
Key: > 7.00

====

target_desc: JAK1 (Homo sapiens)
Construct: JAK1 (aa 850-1154) and TYK2 (aa 871-1187) are expressed with an N-terminally fused GST-tag; GST (N)
method_summary: JAK1 kinase assay (HTRF, inhibition of phosphorylation of a synthetic peptide)
condition_notes: catalytic domain aa 850-1154, GST-tag; 7 μM ATP (Km); read-out: JAK1 kinase inhibitory activity (EC50)
endpoint_name: EC50

Consider the reported EC50 for these molecules:
1) COc1ccc(CC(=O)N2CCN(c3ncnc4[nH]ccc34)CC3(CC3)C2)cc1: 100 to 1000 nM
2) Cc1ccc(S(=O)(=O)N2CC3(CC3)CN(c3ncnc4[nH]ccc34)CC2C)cc1 (stereo not drawn): > 1000 nM
3) O=C(c1ccc(Cl)cc1)N1CCCN(c2ncnc3[nH]ccc23)CC12CC2: < 100 nM
4) Cc1nnc(C(=O)N2CCCN(c3ncnc4[nH]ccc34)CC23CC3)[nH]1: 100 to 1000 nM
5) CC1CN(c2ncnc3[nH]ccc23)CC2(CC2)CN1C(=O)Cc1ccc(C#N)cc1 (stereo not drawn): > 1000 nM

Pending molecule:
Exercise: Write down EC50 measured for item O=C(c1c[nH]cn1)N1CCCN(c2ncnc3[nH]ccc23)CC12CC2
Key: 100 to 1000 nM
